Test system: cataracts in rats
assayProtocol: Prevention or retardation of cataracts in galactose-fed rats
Type: in vivo, rat
measurementContext: Study Day 8; 30% galactose diet; A,C,E 0.0025%, B,D 0.01%
# maps each entry to its % of Total Eyes, S (snowflake)
All answers are understood in %, so give the number only.

# compound, % of Total Eyes, S (snowflake) / %
rows = [
    ("O=C1NC(=O)C2(CCOc3ccc(F)cc32)N1 (stereo not shown)", 0),
    ("C[S+]([O-])c1ccc2c(c1)C1(CCO2)NC(=O)NC1=O (stereo not shown)", 8.3),
    ("CSc1ccc2c(c1)C1(CCO2)NC(=O)NC1=O (stereo not shown) [A]", 0),
]

Next item in the queue.
// query Reported % of Total Eyes, S (snowflake) for CSc1ccc2c(c1)C1(CCO2)NC(=O)NC1=O (stereo not shown) [B] : what is it?
// result 0

* * *

Below: a set of entries, each annotated with reported % of Total Eyes, S (snowflake).
System: cataracts in rats
assayProtocol: Prevention or retardation of cataracts in galactose-fed rats
Type: in vivo, rat
measurementContext: Study Day 10; 30% galactose diet; A,C,E 0.0025%, B,D 0.01%
Write the answer as a number in %, unit excluded.

# compound, assayedTarget, readoutLabel, valueReported
records = [
    ("O=C1NC(=O)C2(CCOc3ccc(F)cc32)N1 (stereo not shown)", "cataracts in rats", "% of Total Eyes, S (snowflake)", 0),
    ("CSc1ccc2c(c1)C1(CCO2)NC(=O)NC1=O (stereo not shown) [B]", "cataracts in rats", "% of Total Eyes, S (snowflake)", 0),
    ("C[S+]([O-])c1ccc2c(c1)C1(CCO2)NC(=O)NC1=O (stereo not shown)", "cataracts in rats", "% of Total Eyes, S (snowflake)", 16.7),
]

// query Find the recorded % of Total Eyes, S (snowflake) belonging to CSc1ccc2c(c1)C1(CCO2)NC(=O)NC1=O (stereo not shown) [A] and report it.
// result 12.5

* * *

Tested on: cataracts in rats
assayProtocol: Prevention or retardation of cataracts in galactose-fed rats
Format: in vivo, rat
measurementContext: Study Day 4; 30% galactose diet; A,C,E 0.0025%, B,D 0.01%
readoutLabel: % of Total Eyes, - (Normal)
Please make sure the unit comes right after the number.

Example entries begin here.
# molecule, assayedTarget, valueReported
records = [
    ("O=C1NC(=O)C2(CCOc3ccc(F)cc32)N1 (stereo not shown) [E]", "cataracts in rats", "100.0%"),
    ("CSc1ccc2c(c1)C1(CCO2)NC(=O)NC1=O (stereo not shown) [A]", "cataracts in rats", "79.2%"),
    ("C[S+]([O-])c1ccc2c(c1)C1(CCO2)NC(=O)NC1=O (stereo not shown) [D]", "cataracts in rats", "75.0%"),
]

// query I am curious: what % of Total Eyes, - (Normal) value has been reported for CSc1ccc2c(c1)C1(CCO2)NC(=O)NC1=O (stereo not shown) [B] ?
// result 100.0%

* * *

Test system: cataracts in rats
assayProtocol: Prevention or retardation of cataracts in galactose-fed rats
Type: in vivo, rat
measurementContext: Study Day 5; 30% galactose diet; A,C,E 0.0025%, B,D 0.01%
readoutLabel: Number of Eyes Observed, ± (eyes)
Give just the numeric value; eyes need not be written.

# compound, Number of Eyes Observed, ± / eyes
rows = [
    ("CSc1ccc2c(c1)C1(CCO2)NC(=O)NC1=O (stereo not shown) [A]", 18),
    ("CSc1ccc2c(c1)C1(CCO2)NC(=O)NC1=O (stereo not shown) [B]", 2),
    ("O=C1NC(=O)C2(CCOc3ccc(F)cc32)N1 (stereo not shown)", 0),
]

For the next question, use this compound.
// query Find the recorded Number of Eyes Observed, ± belonging to C[S+]([O-])c1ccc2c(c1)C1(CCO2)NC(=O)NC1=O (stereo not shown) and report it.
// result 8

* * *

Listed below: Number of Eyes Observed, N (nuclear cataract) values for each entry.
Tested on: cataracts in rats
assayProtocol: Prevention or retardation of cataracts in galactose-fed rats
Type: in vivo, rat
measurementContext: Study Day 26; 30% galactose diet; A,C,E 0.0025%, B,D 0.01%
All answers are understood in eyes, so give the number only.

# compound, valueReported
data = [
    ("C[S+]([O-])c1ccc2c(c1)C1(CCO2)NC(=O)NC1=O (stereo not shown)", 2),
    ("CSc1ccc2c(c1)C1(CCO2)NC(=O)NC1=O (stereo not shown) [B]", 0),
    ("CSc1ccc2c(c1)C1(CCO2)NC(=O)NC1=O (stereo not shown) [A]", 0),
]

Shift focus to the following entry.
// query Provide value of Number of Eyes Observed, N (nuclear cataract) for this record tested with cataracts in rats: O=C1NC(=O)C2(CCOc3ccc(F)cc32)N1 (stereo not shown)
// result 0

* * *

System: cataracts in rats
assayProtocol: Prevention or retardation of cataracts in galactose-fed rats
Type: in vivo, rat
measurementContext: Study Day 16; 30% galactose diet; A,C,E 0.0025%, B,D 0.01%
Procedure: The compounds to be tested were: Test compound/diet mixtures were formulated as follows: […] Similarly, the 0.01% level was designed to provide a drug concentration of 20 mg per kilogram per day. […] Sufficient amounts of test compound/diet mixture were maintained in the food hoppers to allow the animals to eat ad libitum. All aliquots of test compound/diet mixture added to the food hoopers were weighed and the weights, as well as day of addition, recorded. […]
readoutLabel: Number of Eyes Observed, S (snowflake)
Field: value (include unit after the number)

Here's what some known entries look like.
# molecule, readoutLabel, valueReported
data = [
    ("O=C1NC(=O)C2(CCOc3ccc(F)cc32)N1 (stereo not shown)", "Number of Eyes Observed, S (snowflake)", "0 eyes"),
    ("C[S+]([O-])c1ccc2c(c1)C1(CCO2)NC(=O)NC1=O (stereo not shown)", "Number of Eyes Observed, S (snowflake)", "9 eyes"),
    ("CSc1ccc2c(c1)C1(CCO2)NC(=O)NC1=O (stereo not shown) [B]", "Number of Eyes Observed, S (snowflake)", "0 eyes"),
]

Lab note: next molecule to report on.
// query Dear colleague, I am looking for the recorded Number of Eyes Observed, S (snowflake) of the following molecule: CSc1ccc2c(c1)C1(CCO2)NC(=O)NC1=O (stereo not shown) [A]
// result 12 eyes

* * *

Reported Number of Eyes Observed, - (Normal) values for a set of compounds
System: cataracts in rats
assayProtocol: Prevention or retardation of cataracts in galactose-fed rats
Format: in vivo, rat
measurementContext: Study Day 20; 30% galactose diet; A,C,E 0.0025%, B,D 0.01%
All answers are understood in eyes, so give the number only.

# compound, readoutLabel, valueReported
measured = [
    ("CSc1ccc2c(c1)C1(CCO2)NC(=O)NC1=O (stereo not shown) [A]", "Number of Eyes Observed, - (Normal)", 0),
    ("O=C1NC(=O)C2(CCOc3ccc(F)cc32)N1 (stereo not shown) [E]", "Number of Eyes Observed, - (Normal)", 3),
    ("C[S+]([O-])c1ccc2c(c1)C1(CCO2)NC(=O)NC1=O (stereo not shown) [D]", "Number of Eyes Observed, - (Normal)", 0),
]

// query Which Number of Eyes Observed, - (Normal) is reported for this compound? CSc1ccc2c(c1)C1(CCO2)NC(=O)NC1=O (stereo not shown) [B]
// result 0

* * *

Test system: cataracts in rats
assayProtocol: Prevention or retardation of cataracts in galactose-fed rats
Type: in vivo, rat
measurementContext: Study Day 10; 30% galactose diet; A,C,E 0.0025%, B,D 0.01%
Let's look at some compounds and their measured Number of Eyes Observed, S (snowflake).
Lab book: enter the figure in eyes, no units written.

Worked examples follow.
# compound, assayedTarget, Number of Eyes Observed, S (snowflake), eyes
rows = [
    ("CSc1ccc2c(c1)C1(CCO2)NC(=O)NC1=O (stereo not shown) [A]", "cataracts in rats", 3),
    ("CSc1ccc2c(c1)C1(CCO2)NC(=O)NC1=O (stereo not shown) [B]", "cataracts in rats", 0),
    ("C[S+]([O-])c1ccc2c(c1)C1(CCO2)NC(=O)NC1=O (stereo not shown) [D]", "cataracts in rats", 4),
]

# next compound below
// query # get_value(readout='Number of Eyes Observed, S (snowflake)', item= O=C1NC(=O)C2(CCOc3ccc(F)cc32)N1 (stereo not shown) [E] )
// result 0

* * *

Tested on: cataracts in rats
assayProtocol: Prevention or retardation of cataracts in galactose-fed rats
Assay type: in vivo, rat
measurementContext: Study Day 6; 30% galactose diet; A,C,E 0.0025%, B,D 0.01%
Method: The compounds to be tested were: Test compound/diet mixtures were formulated as follows: […] Similarly, the 0.01% level was designed to provide a drug concentration of 20 mg per kilogram per day. […] Sufficient amounts of test compound/diet mixture were maintained in the food hoppers to allow the animals to eat ad libitum. All aliquots of test compound/diet mixture added to the food hoopers were weighed and the weights, as well as day of addition, recorded. […]
readoutLabel: Number of Eyes Observed, - (Normal) (eyes)
Quick note: give the figure in eyes, leave out the unit.

Below: 3 molecules and their reported Number of Eyes Observed, - (Normal).
# molecule, Number of Eyes Observed, - (Normal), eyes
records = [
    ("CSc1ccc2c(c1)C1(CCO2)NC(=O)NC1=O (stereo not shown) [A]", 2),
    ("C[S+]([O-])c1ccc2c(c1)C1(CCO2)NC(=O)NC1=O (stereo not shown)", 6),
    ("CSc1ccc2c(c1)C1(CCO2)NC(=O)NC1=O (stereo not shown) [B]", 15),
]

// query Could you share which Number of Eyes Observed, - (Normal) value was measured for O=C1NC(=O)C2(CCOc3ccc(F)cc32)N1 (stereo not shown) ?
// result 24
